# MEASUREMENT TARGET: T1, human PD-L1, full-length, on CHO cells (human, UniProt Q9NZQ7 19-290)
# T1 construct: also called huPD-L1; CD274
# T1 sequence (Q9NZQ7 19-290): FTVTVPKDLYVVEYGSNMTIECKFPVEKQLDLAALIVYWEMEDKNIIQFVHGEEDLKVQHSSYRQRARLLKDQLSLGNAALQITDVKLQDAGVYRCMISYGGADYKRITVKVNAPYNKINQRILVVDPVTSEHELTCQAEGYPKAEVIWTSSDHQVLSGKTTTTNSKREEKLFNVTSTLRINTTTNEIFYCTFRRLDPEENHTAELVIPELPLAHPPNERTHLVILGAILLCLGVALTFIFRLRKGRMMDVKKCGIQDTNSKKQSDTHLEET
# EXPERIMENT NOTES: flow cytometry; PD-L1 MFI over CD28 MFI
Collected Ratio of PDL1:CD28 values appear next to each entry.
Respond with the bare value in ratio.

Known results for binders:
variant CD80 IgV-Fc E35D/M47V (Fc fusion, not shown: small tags and cut ends; a dimerising Fc or GST) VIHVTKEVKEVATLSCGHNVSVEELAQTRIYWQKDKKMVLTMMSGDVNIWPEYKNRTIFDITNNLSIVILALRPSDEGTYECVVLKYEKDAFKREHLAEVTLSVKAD	13.6
variant CD80 IgV-Fc E35D/V68M/L85Q (Fc fusion, not shown: small tags and cut ends; a dimerising Fc or GST) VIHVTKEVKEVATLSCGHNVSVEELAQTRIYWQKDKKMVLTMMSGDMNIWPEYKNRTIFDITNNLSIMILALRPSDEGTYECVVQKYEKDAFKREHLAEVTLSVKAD	78.4
variant CD80 IgV-Fc D46V/M47L/V68M (Fc fusion, not shown: small tags and cut ends; a dimerising Fc or GST) VIHVTKEVKEVATLSCGHNVSVEELAQTRIYWQKEKKMVLTMMSGVLNIWPEYKNRTIFDITNNLSIMILALRPSDEGTYECVVLKYEKDAFKREHLAEVTLSVKAD	12.8

Give Ratio of PDL1:CD28 for variant CD80 IgV-Fc E35D/M47L/V68M/L85Q (Fc fusion, not shown: small tags and cut ends; a dimerising Fc or GST) VIHVTKEVKEVATLSCGHNVSVEELAQTRIYWQKDKKMVLTMMSGDLNIWPEYKNRTIFDITNNLSIMILALRPSDEGTYECVVQKYEKDAFKREHLAEVTLSVKAD
96.3

Return the recorded Ratio of PDL1:CD28 value; entry: variant CD80 IgV-Fc M47V/N48K (Fc fusion, not shown: small tags and cut ends; a dimerising Fc or GST) VIHVTKEVKEVATLSCGHNVSVEELAQTRIYWQKEKKMVLTMMSGDVKIWPEYKNRTIFDITNNLSIVILALRPSDEGTYECVVLKYEKDAFKREHLAEVTLSVKAD
7.5

Return the recorded Ratio of PDL1:CD28 value; entry: variant CD80 IgV-Fc M47V/V68M (Fc fusion, not shown: small tags and cut ends; a dimerising Fc or GST) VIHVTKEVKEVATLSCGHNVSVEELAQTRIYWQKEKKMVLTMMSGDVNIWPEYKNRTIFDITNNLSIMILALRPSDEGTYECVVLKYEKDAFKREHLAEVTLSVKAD
13.1
